Hi there, I'd appreciate the recorded Kd for every entry that follows.
Biological target: Human CD33 (human, UniProt P20138 18-259)
Sequence (P20138 18-259 limits assumed): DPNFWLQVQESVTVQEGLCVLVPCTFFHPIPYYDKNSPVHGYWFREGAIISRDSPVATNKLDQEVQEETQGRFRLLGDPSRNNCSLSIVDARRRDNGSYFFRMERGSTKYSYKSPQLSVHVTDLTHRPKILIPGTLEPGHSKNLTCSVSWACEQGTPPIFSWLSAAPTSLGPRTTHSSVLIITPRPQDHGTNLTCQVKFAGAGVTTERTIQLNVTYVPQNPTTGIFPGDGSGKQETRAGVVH
Experiment: BLI (Octet) as in Example 1, His-tagged VHH, human CD33
Please reply with the bare figure in nM and do not write the unit itself.

Fill in the blank: the reported Kd of 33-13 (VHH, not shown: C-terminal His-tag) VHH: QVQLVESGGGLVQAGGSLRLSCAASGSISSINSMNWYRQAPGKQREKVAGINSSGDTNYVDSVKGRFTISRDNAERTTYLQMNNLKPEDTGLYYCNADPRPWPNDVAFGSWGQGTRVTVSS is ____.
0.409

Give its Kd value. Item: 33-14 (VHH, not shown: C-terminal His-tag) VHH: QVQLVESGGGLVQAGDSLKLSCAASGRTSLILAMAWWRQAPGKEREFAGRIWWNNDMTRYSDSVKGRFTISKDNTKNMVYLRMDNLGPEDTAVYYCEADLIGGSRGWGQGTQVTVSS
0.136
